For each entry below, report its glass transition temperature value.
Respond with the bare value in °C.

glass transition temperature in this record for *Oc1ccc(Oc2ccc(C(=O)c3cccc(NC(=O)CCCCCCCCC(=O)Nc4cccc(C(=O)c5ccc(*)cc5)c4)c3)cc2)cc1 (repeat unit) : 144.00

glass transition temperature in this record for *CC(*)c1ccc2ccccc2c1 (repeat unit) : 146.50

glass transition temperature in this record for *CCCCCCCCCCCCOC(=O)NCCCCCCCCCCNC(=O)O* (repeat unit) : 34.00

glass transition temperature in this record for *O[Si](*)(C)CCCCCCCCCCCOc1ccc(/C=C/c2ccc(OC)cc2)cc1 (repeat unit) : 55.00

glass transition temperature in this record for *c1ccc(Sc2ccc(-n3c(=O)c4cc5c(=O)n(*)c(=O)c5cc4c3=O)cn2)nc1 (repeat unit) : 359.00
